# credit: patent US20260216207A1

# target_entity: TRKB (Homo sapiens, UniProt Q16620)
# Sequence (Q16620 32-822, species assumed): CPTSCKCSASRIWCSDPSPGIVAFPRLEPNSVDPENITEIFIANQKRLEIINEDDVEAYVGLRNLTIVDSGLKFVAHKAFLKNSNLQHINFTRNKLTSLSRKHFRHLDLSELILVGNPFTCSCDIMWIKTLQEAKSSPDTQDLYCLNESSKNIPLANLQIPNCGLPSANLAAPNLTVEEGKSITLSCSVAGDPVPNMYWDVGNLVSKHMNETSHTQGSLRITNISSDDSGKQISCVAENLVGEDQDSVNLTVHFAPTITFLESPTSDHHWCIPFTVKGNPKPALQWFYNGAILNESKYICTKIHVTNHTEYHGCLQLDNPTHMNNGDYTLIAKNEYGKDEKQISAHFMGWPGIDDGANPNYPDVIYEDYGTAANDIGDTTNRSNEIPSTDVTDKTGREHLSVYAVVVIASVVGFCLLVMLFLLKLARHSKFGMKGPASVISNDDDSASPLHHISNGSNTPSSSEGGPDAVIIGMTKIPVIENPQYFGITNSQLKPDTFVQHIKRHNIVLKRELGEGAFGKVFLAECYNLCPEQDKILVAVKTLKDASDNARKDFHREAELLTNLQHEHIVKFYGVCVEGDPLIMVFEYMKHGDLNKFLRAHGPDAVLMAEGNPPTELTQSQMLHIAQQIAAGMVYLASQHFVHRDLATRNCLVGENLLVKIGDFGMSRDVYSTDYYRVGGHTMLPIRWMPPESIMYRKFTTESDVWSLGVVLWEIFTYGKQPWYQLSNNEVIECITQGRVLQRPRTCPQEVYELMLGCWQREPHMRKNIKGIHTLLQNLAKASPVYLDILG
# assay_method_text: HTRF KinEASE kinase assay, TRKB (kinase selectivity)
# Assay type: biochemical
# conditions_used: HTRF KinEASE kit, 3 duplicate wells; read-out: TRKB IC50
measure: IC50 (nM)

1) CO[C@@H]1[C@H](N(C)C(=O)CCC(=O)NO)C[C@H]2O[C@]1(C)n1c3ccccc3c3c4c(c5c6ccccc6n2c5c31)C(=O)NC4=O = 13.6

---

# target_entity: PKCε (Homo sapiens)
# Sequence (Q02156 whole entry): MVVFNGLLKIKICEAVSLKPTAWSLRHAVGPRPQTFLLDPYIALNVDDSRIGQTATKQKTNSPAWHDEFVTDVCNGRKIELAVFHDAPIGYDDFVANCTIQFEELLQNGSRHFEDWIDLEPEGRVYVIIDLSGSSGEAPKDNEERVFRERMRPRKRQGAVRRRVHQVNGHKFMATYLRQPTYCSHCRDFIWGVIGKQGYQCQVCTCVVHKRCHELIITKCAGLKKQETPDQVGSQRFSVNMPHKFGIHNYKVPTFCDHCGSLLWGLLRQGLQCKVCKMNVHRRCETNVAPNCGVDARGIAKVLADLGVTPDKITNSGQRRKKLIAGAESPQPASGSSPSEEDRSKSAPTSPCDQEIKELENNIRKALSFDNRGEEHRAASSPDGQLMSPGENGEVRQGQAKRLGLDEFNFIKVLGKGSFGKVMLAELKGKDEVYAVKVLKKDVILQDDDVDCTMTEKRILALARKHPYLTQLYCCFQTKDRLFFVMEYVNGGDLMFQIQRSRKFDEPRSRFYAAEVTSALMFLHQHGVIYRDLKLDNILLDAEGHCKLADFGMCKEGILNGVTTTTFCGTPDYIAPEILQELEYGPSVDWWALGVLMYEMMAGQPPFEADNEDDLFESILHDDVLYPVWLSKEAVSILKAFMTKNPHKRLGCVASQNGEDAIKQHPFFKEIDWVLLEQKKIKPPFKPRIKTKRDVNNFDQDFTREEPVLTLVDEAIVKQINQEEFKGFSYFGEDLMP
# assay_method_text: HTRF KinEASE kinase assay, PKCε (kinase selectivity)
# Assay type: biochemical
# conditions_used: HTRF KinEASE kit, 3 duplicate wells; read-out: PKCε IC50
measure: IC50 (nM)

1. CO[C@@H]1[C@H](N(C)C(=O)CCC(=O)NO)C[C@H]2O[C@]1(C)n1c3ccccc3c3c4c(c5c6ccccc6n2c5c31)C(=O)NC4=O = 69
